targetOfAssay: carbonic anhydrase (Homo sapiens, UniProt P00918)
test: carbonic anhydrase inhibition (I50) and Ki, methods of Ponticello et al., J. Med. Chem., 30, 591 (1987)
Assay type: biochemical
conditionLabel: value in parentheses; hi = more active component of racemic mixture; read-out: Ki (hi)
pKi: −log10 of the molar value.
Please use rule met whenever pKi is not below 9, and rule not met whenever it is.

Incoming: Hi, just wondering whether CC[C@@H]1C[C@H](NC)c2cc(S(N)(=O)=O)sc2S1(=O)=O (relative stereo) shows pKi of 9 or higher.
Outgoing: rule not met

Incoming: Further, for CCN[C@H]1C[C@@H](CC(C)C)S(=O)(=O)c2sc(S(N)(=O)=O)cc21 (relative stereo) ?
Outgoing: rule met

----------
targetOfAssay: carbonic anhydrase (Homo sapiens, UniProt P00918)
test: carbonic anhydrase inhibition (I50) and Ki, methods of Ponticello et al., J. Med. Chem., 30, 591 (1987)
Format: biochemical
conditionLabel: carbonic anhydrase inhibition
Counter-ions that a name gives are not always drawn.
Could you please report measured pIC50 for the items listed next?
One number for each entry, as −log10 of the molar value.

# example entries with known answers
molecule | pIC50
CCN[C@H]1C[C@H](CC)S(=O)(=O)c2sc(S(N)(=O)=O)cc21 | 9.30
C=CC[C@@H]1C[C@H](NCC)c2cc(S(N)(=O)=O)sc2S1(=O)=O [Compound 13, hydrochloride] | 9.68
CCCN[C@H]1C[C@H](CCC)S(=O)(=O)c2sc(S(N)(=O)=O)cc21 | 9.82

// batch mode: one pIC50 value per listed entry
1. C=CC[C@H]1C[C@H](NCC)c2cc(S(N)(=O)=O)sc2S1(=O)=O (relative stereo) [Compound 12, hydrochloride]
2. CCN[C@H]1C[C@@H](CC)S(=O)(=O)c2sc(S(N)(=O)=O)cc21

Outgoing:
[9.64, 9.10]

----------
targetOfAssay: carbonic anhydrase (Homo sapiens)
test: carbonic anhydrase inhibition (I50) and Ki, methods of Ponticello et al., J. Med. Chem., 30, 591 (1987)
Format: biochemical
conditionLabel: carbonic anhydrase; main value; read-out: Ki
Where a name gives a salt, the structure may show the parent alone.
Could you please report measured Ki for the items listed next?
State the value with its unit after it.

# example entries with known answers
compound | recordedEndpoint | resultValue
CCCN[C@H]1C[C@H](CCC)S(=O)(=O)c2sc(S(N)(=O)=O)cc21 [Compound 3] | Ki | 0.23 nM
CC[C@@H]1C[C@H](NC)c2cc(S(N)(=O)=O)sc2S1(=O)=O (relative stereo) [Compound 5] | Ki | 7.1 nM
CCN[C@H]1C[C@@H](CC(C)C)S(=O)(=O)c2sc(S(N)(=O)=O)cc21 (relative stereo) [Compound 14] | Ki | 2.6 nM
CCN[C@H]1C[C@@H](CC)S(=O)(=O)c2sc(S(N)(=O)=O)cc21 [Compound 11] | Ki | 1 nM
C=CC[C@@H]1C[C@H](NCC)c2cc(S(N)(=O)=O)sc2S1(=O)=O [Compound 13, hydrochloride] | Ki | 0.4 nM

// batch mode: one Ki value per listed entry
1. CCC[C@@H]1C[C@H](NC)c2cc(S(N)(=O)=O)sc2S1(=O)=O (relative stereo) [Compound 7]
2. CCN[C@H]1C[C@H](CC)S(=O)(=O)c2sc(S(N)(=O)=O)cc21 [Compound 10]
3. CC[C@H]1C[C@H](NC)c2cc(S(N)(=O)=O)sc2S1(=O)=O (relative stereo) [Compound 4]
4. CCC[C@H]1C[C@H](NC)c2cc(S(N)(=O)=O)sc2S1(=O)=O (relative stereo) [Compound 6]

Outgoing:
2.8 nM
0.3 nM
3.6 nM
2.1 nM

----------
targetOfAssay: carbonic anhydrase (Homo sapiens, UniProt P00918)
test: carbonic anhydrase inhibition (I50) and Ki, methods of Ponticello et al., J. Med. Chem., 30, 591 (1987)
Assay type: biochemical
conditionLabel: value in parentheses; hi = more active component of racemic mixture; read-out: Ki (hi)
Could you please report measured Ki for the items listed next?
One number for each entry, in nM.

compound | targetOfAssay | quantityUnit | Ki
CCC[C@H]1C[C@H](NC)c2cc(S(N)(=O)=O)sc2S1(=O)=O (relative stereo) [Compound 6] | carbonic anhydrase (Homo sapiens, UniProt P00918) | nM | 0.85
CCC[C@@H]1C[C@H](NC)c2cc(S(N)(=O)=O)sc2S1(=O)=O (relative stereo) [Compound 7] | carbonic anhydrase (Homo sapiens, UniProt P00918) | nM | 0.64

Lab note: next compound to report on.
Incoming: Bench note: what Ki did CC[C@H]1C[C@H](NC)c2cc(S(N)(=O)=O)sc2S1(=O)=O (relative stereo) [Compound 4] show?
Outgoing: 1.8
